pKd values for the binders below.
target: T1, human CD117 ectodomain (human, UniProt P10721 26-524, biotinylated (BirA co-expression) where captured on streptavidin biosensors); assay: ELISA, human CD117, bivalent Fc fusion
T1 construct: extracellular domain; also called cKIT; full length AviTagged CD117 ectodomain; not shown: C-terminal AviTag or His tag
T1 sequence (P10721 26-524): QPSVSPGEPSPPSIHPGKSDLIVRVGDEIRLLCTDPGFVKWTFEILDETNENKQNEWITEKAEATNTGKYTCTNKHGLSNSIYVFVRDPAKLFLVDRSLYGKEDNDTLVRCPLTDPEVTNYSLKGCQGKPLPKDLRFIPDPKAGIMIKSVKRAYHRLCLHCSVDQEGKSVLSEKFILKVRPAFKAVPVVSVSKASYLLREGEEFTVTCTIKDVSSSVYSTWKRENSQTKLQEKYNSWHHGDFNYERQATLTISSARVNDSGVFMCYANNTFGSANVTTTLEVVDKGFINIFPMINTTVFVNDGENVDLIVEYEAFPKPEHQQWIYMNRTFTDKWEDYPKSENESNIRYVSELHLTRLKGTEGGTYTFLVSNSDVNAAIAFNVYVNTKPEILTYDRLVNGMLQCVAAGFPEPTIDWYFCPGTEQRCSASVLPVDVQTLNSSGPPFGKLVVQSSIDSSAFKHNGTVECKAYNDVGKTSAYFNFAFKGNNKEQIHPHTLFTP
# log scale: pKd equals minus log10 of the concentration in mol/L

Recorded pKd, per entry:
binder	obsValue
P-0059 (Fc fusion, also called P59; bivalent form of P12; not shown: Fc fragment) QVQLVESGGGLVQAGGSLRLSCTASGDTFSSYSMGWFRQGPGKEREFVGGIRWSGGTTYYADSVKGRFTISRDNAKNTVYLQMNSLKREDTAVYYCAAVRRRWLIWQEEEYDYWGQGTLVTVSS	10.22
P-0072 (Fc fusion, also called P72; bivalent form of P38; not shown: Fc fragment) EVQLVESGGGLVQAGGSLRLSCAASGRTSGSYVMGWFRQAPGKEREFVAAISWSAGMTYYADSVKGRFTISRDNAKNTVYLQMNSLKPEDTAVYYCAADQRGVPAYYSDYALYDYWGQGTQVTVSS	9.68
P-0060 (Fc fusion, also called P60; bivalent form of P27; not shown: Fc fragment) EVQLVESGGGLVRAGGSLRLSCAASGRTTFSTYWLGWFRQAPGKNREFVAAISWSAGMAYYQDSKGRFTISRDNTKNTAYLQMNSLQPEDTAVYYCAAGRFHPIRVDTALYWAQGTQVTVSS	9.85
P-0053 (Fc fusion, also called P53; bivalent form of P10; not shown: Fc fragment) QVQLVESGGGLVQAGGSLRLSCVASGRTFSSYAMGWFRQGPGKEREFAAAILSNGLTTYYADSVKGRFTISRDNAKDTVYLQMNSLKPEDTANYYCAAAFTPEFRDGGIWDDASVDYWGQGTQVTVSS	9.80
P-0054 (Fc fusion, also called P54; bivalent form of P29; not shown: Fc fragment) QVHLVESGGGLVQAGGSLGLSCAASGHTFSNYAMGWFRQAPGKEREFVAAISWSGGSTLYADSVKGRFTISRDNGENTVYLQMNSLKPEDTAVYYCALDSTGVYGTGYVSSRKGRYEYWGQGTLVTVSS	9.27

Attention now turns to another entry.
Ask: Any idea what its pKd is? The binder is P-0055 (Fc fusion, also called P55; bivalent form of P31; not shown: Fc fragment) EVQLVESGGGLVRAGGSLRLSCAASGRTFTYDARAWFRQAPGKEREFVAAISWSGGSTYYPNSMKGRFTISRDNAKNTVYLQMNSLKPEDTAVYYCAADESFPAYYSDYALYRYWGQGTLVTVSS
Reply: 9.66
